- Tested on: PPARg:RXRa DBDmut IVT, anti-RXR (DBD mutation: RXRa K156A/R161A, NR concentration 270 nM, RXRa partner concentration 90 nM)
- METHOD DESCRIPTION: PBM binding z-score (relative to random genomic background probes); higher = stronger binding; sequences stand for … in GC…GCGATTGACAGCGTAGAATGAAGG
Categories are assigned from the measured PBM binding z-score using these intervals: class 1 = under 0.6, class 2 = from 0.6 up to 3, class 3 = 3 and over

{"columns": ["MACROMOLECULE SEQUENCE", "ASSIGNED LABEL"],
 "data": [
  ["TAGCCTCGGTCATGCGGGCCAGTATAGTGTCGGC", "class 1"],
  ["GCTAGTAGATCAAGGTTAAGAAAGACTAAGCTAA", "class 2"],
  ["ACAGACAGGTGATGGAGGTAACTCAGGCTATCAT", "class 1"],
  ["CTACAAAGGTGAACAAGGTCGTTGATTACTATTC", "class 3"],
  ["TAGGCTAGGTCAGATCGGGCCAGTATACGCTATA", "class 2"],
  ["ATATGTAGGTTAGCTGGGGTCATTCGGACTAGGC", "class 3"],
  ["TCGAGTAGGTTAGGGGCATTCATAATGGCGTCGA", "class 2"],
  ["CCTATTAGTTGACCATAAGAGCAACCGAAGCTCG", "class 2"],
  ["TTGCCAAGGTGAGCTGAGGTCGTTGATCCAACTC", "class 1"],
  ["TCATATAGGTAATACAGGTGATAGTCGGCATCTA", "class 3"],
  ["ACCTCTAGGTAAAGTTCAGTGAAAGATCGATAGA", "class 2"],
  ["GCCGCTAGGTCAACTGATGGTCAGCTAAAGCTCG", "class 3"],
  ["AGTCAAAGTTCAGGACGAGGTAACGTATAGCACG", "class 1"],
  ["ACTCGGAGGAAAAAGGTCAGAGCTACGCCAGTGA", "class 1"],
  ["TCATATAGGGAAAAGGTGAAAGTCGGTGTGGTAA", "class 3"],
  ["CCAGACAGGTCAGAAGGTAACTCAGCCTCGATTA", "class 2"],
  ["TCATATAGGTAATACAGTTGAAAGTCGGCATCTA", "class 3"],
  ["ATCGTAAGGTCGAGGTGAGTATAGAGAAAGGGAA", "class 1"],
  ["TAGCTTAGGTCAGATCGGGCCAGTATACGCTATA", "class 1"],
  ["GCGACTGGGGCATCAGCAGGGTACCATAACTTAA", "class 3"],
  ["CCTTACGGGTCACTGACAGGTTATAACATTTGGA", "class 3"],
  ["CGTCCAAGGTCTAAGGTCAGTGAAGAGATGACGG", "class 1"],
  ["TCATATAGGTAAACAAGTGAAAGTCCGTAAGTTA", "class 3"],
  ["CCTCCTGGGCCAAGGTCATTGATCAGTCAAAGCA", "class 1"],
  ["CATACAGGGTCAGCTAGGCCAGATTAGGGACGGC", "class 2"]
]}

----------
- Test system: RARa:RXR (NR concentration 270 nM, RXRa partner concentration 90 nM)
- METHOD DESCRIPTION: PBM binding z-score (relative to random genomic background probes); higher = stronger binding; sequences stand for … in GC…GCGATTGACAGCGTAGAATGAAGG
Recorded PBM binding z-score values for a group of sequences are listed next.

{"columns": ["MACROMOLECULE SEQUENCE", "PBM binding z-score"],
 "data": [
  ["TCTTGTAGATCACAGGTTAAGAAAGCCGAAGCCT", 0.737],
  ["AGTCAAAGTACACTAGGTAACGTAAGATTCAGCT", -0.109],
  ["GGAACGAGGGCATTCGAGTTGATAGTATGGCGAT", 0.744],
  ["CAAACTAGGTGAAGGTCAAAGTCGGTTTGTGCCA", 4.27],
  ["TCATATAGGTAAAAGGCGAAAGTCGGTGTGGTAA", 0.628],
  ["GCGACTGGGGCATCAGCAGGTTGCCATAACTTAA", -0.453],
  ["AATACAGGGTCATCGAAGGCCAGAGTACGCACAG", 4.45],
  ["AGAACGAGGGCAATGAGTCGATAGCACGGGTGGC", -0.0854],
  ["CTTGCTAGGTCAATGGTCAGCTAAAGCAGCTCGC", 1.83],
  ["ACTATTAGTTCACTTAGGGCAACCGATACGACGC", 0.774],
  ["AGAACGAGGGCACGCTGAGTTGATACCAGAGTAG", 0.748],
  ["ACAGACAGGTGAGTCAAGGTAACTCAGCTGGACG", 0.569]
]}
